A collection of compounds and their measured growth
# Tested on: NCI-H23 lung
# method: NCI-60 one-dose screen, 48 h (100 = growth as untreated, 0 = no growth, -100 = all killed)
# recorded_conditions: 10 µM unless noted
# Protocol: Growth inhibition of the NCI-H23 human Non-Small Cell Lung tumor cell line is measured as a screen for anti-cancer activity. Cells are grown in 96 well plates and exposed to the test compound for 48 hours. Compounds are tested at a single concentration, which is 10^-5 M for most compounds. The reported endpoint is percent growth (GI% or GIPRCNT), where numbers from 0 - 100% represent growth inhibition, and numbers from -100% - 0 represent cell death. […]
Compounds without any hit were thinned out: in the full panel of roughly 83,000, 20% have a hit.
measured_parameter: growth (%)

> print(dat)
                                   compound  measured.parameter  reported.result
1                         NCCSSC/C=C\CSSCCN              growth              102
2                    CCCCCCCCCCCCCCCCC(=O)O              growth             97.6
3  COC(=O)C(Cc1cn(C(C)=O)c2ccccc12)P(=O)(OC)OC (stereo not given)              growth             98.5
4           COc1ccc(CCN=Cc2ccc(Cl)cc2)cc1OC              growth              100
5  CC(NC(=O)CCl)c1ccccc1 (stereo not given)              growth             99.9

###

# Test system: SK-OV-3 ovarian
# method: NCI-60 one-dose screen, 48 h (100 = growth as untreated, 0 = no growth, -100 = all killed)
# recorded_conditions: 10 µM unless noted
Compounds without any hit were thinned out: in the full panel of roughly 83,000, 20% have a hit. Activity calls are given as the source filed them. How the source made its calls: active means growth percent below 10; inactive means the rest.
measured_parameter: growth

> print(dat)
                                    compound   reported.result
 1                  C/C=C/C(=O)OCCCCCCCCCCCC  97.5% (inactive)
 2  COC(=O)c1nc(=S)[nH]c(C(=O)OC)c1C(=O)c1ccc(OC)cc1   149% (inactive)
 3                Clc1ccc2sc(-c3ccccc3)nc2c1  83.6% (inactive)
 4                  COc1ccc(CCNC(=S)NN)cc1OC   121% (inactive)
 5                  COc1cc2c(cc1O)C(=O)CCCC2   108% (inactive)
 6                          NNC(=O)Nc1ccccc1   105% (inactive)
 7       Nc1c(Cl)cc2c(c1Br)C(=O)c1ccccc1C2=O    84% (inactive)
 8       O=c1[nH]c(=O)c2[nH]c(=O)[nH]c2[nH]1   115% (inactive)
 9                     S=c1nc[nH]c2nc[nH]c12  36.2% (inactive)
10     CC(C)=NOC(C)C(=O)O (stereo not given)   115% (inactive)

###

Overview of reported growth across a group of compounds:
# System: SK-MEL-28 melanoma
# method: NCI-60 one-dose screen, 48 h (100 = growth as untreated, 0 = no growth, -100 = all killed)
# recorded_conditions: 10 µM unless noted
About 83,000 compounds went through this panel and 20% of them were active in at least one assay; those are over-represented in the sample as a whole.
measured_parameter: growth (%)

> print(dat)
                                    compound  reported.result
 1                 Nc1ccc(Cl)c(S(=O)(=O)O)c1              106
 2                    O=C1C=CC(=O)N1Cc1ccco1              113
 3  CC1NC(C)c2ccc3ccccc3c2O1 (stereo not drawn)              111
 4                  CCC/C(=N/NC(N)=O)c1ccco1             97.7
 5                          NNC(=O)Nc1ccccc1              109
 6       C#CCOC(=O)C(N)CS (stereo not drawn)             94.9
 7  CN(C)CC(CN(C)C)C(O)c1ccccc1 (stereo not drawn)              105
 8                     CCc1ccc(OC(=O)CCl)cc1             98.4
 9                 O=C(c1ccccc1)C1(Br)CCCCC1              101
10  Cc1cc(-c2ccc(N=Nc3c(C)nn(-c4ccc(S(=O)(=O)O)cc4)c3O)c(C)c2)ccc1N=Nc1ccc(O)c(C(=O)O)c1              106
11  CC(=O)Oc1ccc(C(c2ccc(OC(C)=O)cc2)c2ccccn2)cc1              107
12  O=C1C2=C(Nc3cc(Cl)ccc3N2)OC1c1c[nH]c2ccc(COc3ccccc3)cc12 (stereo not drawn)               94
13                 N#CC(=S)Nc1ccc(Cl)c(Cl)c1             25.2
14  CCC(C)NC(=O)c1ccccc1C (stereo not drawn)             94.3
15       Nc1c(Cl)cc2c(c1Br)C(=O)c1ccccc1C2=O              113
16               Cc1cc2ccccc2c2cc3ccccc3cc12              107
17                          CCN(CC)C(=S)SCCO              112
18  O=[N+]([O-])c1ccc(NC(c2ccccc2)c2ccc3cccnc3c2O)cc1 (stereo not drawn)             27.7
19       O=c1[nH]c(=O)c2[nH]c(=O)[nH]c2[nH]1             98.9
20  CNc1ccc(Cl)cc1S(=O)(=O)c1ccccc1[N+](=O)[O-]             96.2
21                               Cc1cnc(N)s1             99.1
22                       CC(=O)c1cc2ccccc2o1             96.6
23  CCCCCCC(C)CC1=C(O)c2ccccc2C(=O)C1=O (stereo not drawn)             64.4
24                 CC(=O)Nc1ccc2oc(=O)ccc2c1              115
25  O=C1C=CC(n2cc(F)c(=O)[nH]c2=O)O1 (stereo not drawn)             75.1
26  O=C1c2ccccc2C(c2ccccc2)C1c1ccccc1 (stereo not drawn)              111
27  CC1CCC(=O)N1c1ccc(N)cc1 (stereo not drawn)              107
28  CC(C)(C)C1CCC(=NO)CC1 (stereo not drawn)              110
29       Nc1ccc2ccc(NS(=O)(=O)N3CCCCC3)cc2c1             55.8
30  CC(NC(=O)CCl)c1ccccc1 (stereo not drawn)              111
31           CC(=O)C[n+]1ccccc1Sc1ccc(Cl)cc1              100
32                        COC(=O)CCOc1ccccc1              123
33                      O=C1Cc2ccccc2C(=O)N1              106
34           CCc1ccccc1-n1[nH]c(C)c(C=N)c1=O              110
35  O=P(O)(O)OC1C(OP(=O)(O)O)C(OP(=O)(O)O)C(OP(=O)(O)O)C(OP(=O)(O)O)C1OP(=O)(O)O.[Cu+2] (stereo not drawn)              116
36                           CN(C)C(=S)N(C)C              118
37  COC(=O)c1nc(N)nc(C(=O)OC)c1C(=O)c1cccc2ccccc12              106
38  C/C(=C\c1ccccc1)C(O)C(=O)c1nc2ccc([N+](=O)[O-])cc2[nH]c1=O (stereo not drawn)              112
39                      CS(=O)(=O)c1nsc(N)n1              109
40  Clc1ccc2c(c1)N(C1CCCN(Cc3ccccc3)C1)c1ccccc1S2 (stereo not drawn)             56.9
41                   Oc1ccc(O)c(-c2ccccc2)c1             77.4
42  Cc1c(Cl)c(C)c(Cc2c(C)c(Cl)c(C)c(Cl)c2O)c(O)c1Cl             26.1
43                           O=COCCCc1ccccc1              108
